system: K+ channel of rabbit mesenteric artery (RMA); assay: K+ channel antagonism: inhibition of pinacidil-induced relaxation of norepinephrine-contracted rabbit mesenteric artery (RMA) rings; assay type: cell-based; conditions: Oryctolagus cuniculus, 0.25 h; Table III; 5 μM; inhibition of relaxation by pinacidil 1 μM at 15 min; mean ± sem (number of rings); >=65% considered active, <20% inactive; read-out: RMA K+ Channel Antagonism % I at 5 μM
observable: inhibition at 5 µM (%)
Use % as the unit, but write only the number.

inhibition at 5 µM for N#CN=C(Nc1cccnc1)NC(c1ccccc1)C1CCCC1 (stereo not shown) is 88.1

inhibition at 5 µM for CC(NC(=NC#N)Nc1cccnc1)c1ccc(Cl)c(Cl)c1 (stereo not shown) is 90.8

inhibition at 5 µM for CC(NC(=NC#N)Nc1cccnc1)c1cccc(C(F)(F)F)c1 (stereo not shown) is 85.3

inhibition at 5 µM for N#CN=C(Nc1cccnc1)NC(c1ccccc1)C1CCC1 (stereo not shown) is 96

inhibition at 5 µM for CC(NC(=NC#N)Nc1cccnc1)c1cc(Cl)ccc1Cl (stereo not shown) is 86.9

inhibition at 5 µM for CCCC(NC(=NC#N)Nc1cccnc1)c1ccccc1 (stereo not shown) is 85.2

inhibition at 5 µM for N#CN=C(Nc1cccnc1)NC(c1ccccc1)C1CC1 (stereo not shown) is 93.3

inhibition at 5 µM for CC(C)(C)C(NC(=NC#N)Nc1cccnc1)c1ccccc1 (stereo not shown) is 83.2

inhibition at 5 µM for CCC(NC(=NC#N)Nc1cccnc1)c1ccccc1 (stereo not shown) is 78.8

inhibition at 5 µM for `CC[C@H](NC(=NC#N)Nc1cccnc1)c1ccccc1` is 13.9

###

tested on: K+ channel of rabbit mesenteric artery (RMA); test: K+ channel antagonism: inhibition of pinacidil-induced relaxation of norepinephrine-contracted rabbit mesenteric artery (RMA) rings; assay type: cell-based; details: Oryctolagus cuniculus, 0.25 h; Table III; 5 μM; inhibition of relaxation by pinacidil 1 μM at 15 min; mean ± sem (number of rings); >=65% considered active, <20% inactive; read-out: RMA K+ Channel Antagonism % I at 5 μM
Kindly supply the reported inhibition at 5 µM values for the records listed here.
Use % as the unit, but write only the number.

inhibition at 5 µM for CC(C)C(NC(=NC#N)Nc1cccnc1)c1ccccc1 (centres unmarked) [Compound 12] is 85.5

inhibition at 5 µM for CC(C)(NC(=NC#N)Nc1cccnc1)c1ccccc1 [Compound 9] is 89.5

inhibition at 5 µM for COCC(NC(=NC#N)Nc1cccnc1)c1ccccc1 (centres unmarked) [Compound 16] is 51.1

inhibition at 5 µM for CC(N/C(=N\C#N)Nc1ccncc1)C(C)(C)C (centres unmarked) [Pinacidil] is 0

inhibition at 5 µM for Cc1ccccc1C(C)NC(=NC#N)Nc1cccnc1 (centres unmarked) [Compound 14] is 58.7

inhibition at 5 µM for CC(NC(=NC#N)Nc1cccnc1)c1cccc(Cl)c1 (centres unmarked) [Compound 25] is 89.9

inhibition at 5 µM for N#CN=C(Nc1cccnc1)NC1(c2ccccc2)CC=CC1 [Compound 3] is 91

inhibition at 5 µM for CC[C@@H](NC(=NC#N)Nc1cccnc1)c1ccccc1 [Compound 22] is 89

inhibition at 5 µM for N#CN=C(Nc1cccnc1)N[C@@H](CO)c1ccccc1 [Compound 4] is 2.6

inhibition at 5 µM for CC(NC(=NC#N)Nc1cccnc1)c1ccccc1 (racemic) [Compound 7] is 65.3

inhibition at 5 µM for Cc1cccc(C(C)NC(=NC#N)Nc2cccnc2)c1 (centres unmarked) [Compound 15] is 82

inhibition at 5 µM for C[C@@H](NC(=NC#N)Nc1cccnc1)c1ccccc1 [Compound 1] is 86.3

inhibition at 5 µM for CC(NC(=NC#N)Nc1cccnc1)c1ccccc1Cl (centres unmarked) [Compound 26] is 74.7

inhibition at 5 µM for N#CN=C(Nc1cccnc1)NC1(c2ccccc2)CCCC1 [Compound 11] is 90.4

inhibition at 5 µM for N#CN=C(Nc1cccnc1)NC1(c2ccccc2)CCCCC1 [Compound 10] is 85.5

inhibition at 5 µM for C[C@H](NC(=NC#N)Nc1cccnc1)c1ccccc1 [Compound 8] is 22.1

inhibition at 5 µM for N#CN=C(Nc1cccnc1)N[C@H](CO)c1ccccc1 [Compound 27] is 92.5

###

system: K+ channel of rabbit mesenteric artery (RMA); assay: K+ channel antagonism: inhibition of pinacidil-induced relaxation of norepinephrine-contracted rabbit mesenteric artery (RMA) rings; type: cell-based; conditions: Oryctolagus cuniculus; Table IV; 0.05 μM; lowest concentration giving >20% inhibition or lowest tested; read-out: RMA K+ Channel Antagonism % I (conc. μM)
Cut-off 50% on inhibition at 0.05 µM, inclusive. At or above means t; below means f.

hey, is inhibition at 0.05 µM for this one >= 50%? CCC(NC(=NC#N)Nc1cccnc1)c1ccccc1F (stereo not shown)
f

hey, is inhibition at 0.05 µM for this one >= 50%? `N#CN=C(Nc1cccnc1)NC1(c2cccc(Cl)c2F)CCC1`
t

hey, is inhibition at 0.05 µM for this one >= 50%? `N#CN=C(Nc1cccnc1)NC1(c2cccc(F)c2F)CCC1`
f

hey, is inhibition at 0.05 µM for this one >= 50%? `N#CN=C(Nc1ccc(N)nc1)NC1(c2cccc(F)c2)CCC1`
t

hey, is inhibition at 0.05 µM for this one >= 50%? `N#CN=C(Nc1cccnc1)NC1(c2cccc(Cl)c2)CCC1`
t
